Entries annotated with measured fraction ligated
B1: minF1; the commonest letter at each place (parent)
chain: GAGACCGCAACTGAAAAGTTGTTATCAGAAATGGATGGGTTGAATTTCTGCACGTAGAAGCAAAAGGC

Variants of: B1
Assay: fraction ligated after 30 min (ligated reads / total reads); higher = more ligase activity
Conditions: with F1*subA RNA substrate (template-directed ligation), 42 °C
Format: numeric value only, no unit, no commentary.

In [3]: df
Out[3]:
   variant_name    property_label  test_result
0     A24T G37T  fraction ligated      0.00399
1     A27T G42C  fraction ligated       0.0569
2     A24C G37T  fraction ligated      0.00693
3     C26G A35C  fraction ligated      0.00486
4     C26A A44C  fraction ligated       0.0236
5     A29T A44G  fraction ligated        0.734
6     A24T A44T  fraction ligated      0.00772
7     A30G A35G  fraction ligated          0.4

Q. For the variant T25C T32A , report fraction ligated.
A. 0.00778

Q. For the variant A31C G37A , report fraction ligated.
A. 0.0105

Q. For the variant G34A A44T , report fraction ligated.
A. 0.0265

Q. For the variant A29T A44C , report fraction ligated.
A. 0.59
